Entries and their GI50 values follow.
tested on: SK-MEL-28; assay: NCI tumour cell line growth inhibition, 48 h
Calls of active or inactive are those of the source. Cut-off read from the data, not from the text of the source: active = GI50 up to about 1.1 µM and inactive = higher.

molecule	result
CCCCNCCCNCCCNC(=O)c1csc(-c2csc(CCNC(=O)C(NC(=O)C(C)C(O)C(C)NC(=O)C(NC(=O)c3nc(C(CC(N)=O)NCC(N)C(N)=O)nc(N)c3C)C(OC3OC(CO)C(O)C(O)C3OC3OC(CO)C(O)C(OC(N)=O)C3O)c3c[nH]cn3)C(C)O)n2)n1 (centres undefined)	13.6 µM (inactive)
CN(C)Cc1cc(/N=N/c2cccc(Cl)c2)ccc1O	13.6 µM (inactive)
O=C(Nc1cccc(NC(=O)C(=O)C2CCC3=C(Sc4ccccc4N3)C2=O)n1)C(=O)C1CCC2=C(Sc3ccccc3N2)C1=O (centres undefined)	> 100 µM (inactive)
O=C(/C=C/c1ccc(O)c(O)c1)c1ccc(O)cc1O [BUTEIN]	14.5 µM (inactive)
O=c1c2cc(Br)ccc2ncn1COCc1ccccc1	> 100 µM (inactive)
O=C1CCC(=O)C1=NNc1ccccc1	> 100 µM (inactive)
O=[N+]([O-])c1c(/C=N/c2ccccc2)oc(-c2ccc3c(c2)OCO3)c1-c1ccc2c(c1)OCO2	> 100 µM (inactive)
C=CCN1C(=O)/C(=C/c2ccc(C)cc2)N=C1SC1OC(COC(C)=O)C(OC(C)=O)C(OC(C)=O)C1OC(C)=O (centres undefined)	> 100 µM (inactive)

As a next step, examine the molecule that follows.
Requested field: GI50. Item: Cc1nc(Cl)c(C)c(Cl)n1
> 93.3 µM (inactive)
